Target: Protein cereblon/Glycogen synthase kinase-3 beta (Homo sapiens, UniProt P49841+Q96SW2)
Sequence (P49841 whole entry, looked up): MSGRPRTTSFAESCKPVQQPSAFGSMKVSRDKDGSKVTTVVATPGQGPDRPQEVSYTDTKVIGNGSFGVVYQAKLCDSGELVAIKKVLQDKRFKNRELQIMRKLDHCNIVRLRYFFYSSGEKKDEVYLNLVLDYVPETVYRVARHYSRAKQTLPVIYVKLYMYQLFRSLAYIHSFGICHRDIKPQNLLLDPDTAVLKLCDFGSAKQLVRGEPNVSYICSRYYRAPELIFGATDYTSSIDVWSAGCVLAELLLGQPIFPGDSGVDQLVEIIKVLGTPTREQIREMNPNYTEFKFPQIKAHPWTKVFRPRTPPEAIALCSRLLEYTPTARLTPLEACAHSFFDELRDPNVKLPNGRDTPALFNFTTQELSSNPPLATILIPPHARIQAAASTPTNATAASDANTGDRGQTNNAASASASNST
Sequence (Q96SW2 whole entry, looked up): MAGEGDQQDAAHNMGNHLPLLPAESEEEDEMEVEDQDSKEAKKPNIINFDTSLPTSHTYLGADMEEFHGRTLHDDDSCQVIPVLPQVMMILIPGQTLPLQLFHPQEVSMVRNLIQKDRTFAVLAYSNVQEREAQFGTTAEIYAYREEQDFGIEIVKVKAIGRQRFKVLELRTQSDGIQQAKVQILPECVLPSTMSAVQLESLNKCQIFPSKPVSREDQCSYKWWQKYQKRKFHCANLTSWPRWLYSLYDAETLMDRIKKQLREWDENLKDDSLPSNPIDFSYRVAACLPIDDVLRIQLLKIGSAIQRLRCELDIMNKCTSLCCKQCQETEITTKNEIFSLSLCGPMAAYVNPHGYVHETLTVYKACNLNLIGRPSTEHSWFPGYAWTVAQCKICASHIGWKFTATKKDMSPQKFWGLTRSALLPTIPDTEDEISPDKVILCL
Experiment: PROTAC activity at CRBN/GSK3beta in human PANC-1 cells assessed as induction of GSK3beta degradation by measuring maximal efficacy by target engagement binding based cell-ELISA relative to control

molecule	target.or.system	unit.abbreviation	Emax
O=C1CCC(N2C(=O)c3cccc(NCC(=O)N4CCC(C(=O)N5CCN(CCCn6cc(C7=C(c8c[nH]c9ccccc89)C(=O)NC7=O)c7ccccc76)CC5)CC4)c3C2=O)C(=O)N1 (stereo not drawn)	Protein cereblon/Glycogen synthase kinase-3 beta (Homo sapiens, UniProt P49841+Q96SW2)	%	81
O=C1CCC(N2C(=O)c3ccc(N4CCN(CCOCCC(=O)N5CCC(NC(=O)c6c[nH]nc6NC(=O)c6c(Cl)cccc6Cl)CC5)CC4)cc3C2=O)C(=O)N1 (stereo not drawn)	Protein cereblon/Glycogen synthase kinase-3 beta (Homo sapiens, UniProt P49841+Q96SW2)	%	89
O=C1CCC(N2C(=O)c3cccc(NCCOCCOCCOCC(=O)N4CCC(NC(=O)c5c[nH]nc5NC(=O)c5c(Cl)cccc5Cl)CC4)c3C2=O)C(=O)N1 (stereo not drawn)	Protein cereblon/Glycogen synthase kinase-3 beta (Homo sapiens, UniProt P49841+Q96SW2)	%	89
CN(CCC(=O)N1CCC(NC(=O)c2c[nH]nc2NC(=O)c2c(Cl)cccc2Cl)CC1)C(=O)CNc1cccc2c1C(=O)N(C1CCC(=O)NC1=O)C2=O (stereo not drawn)	Protein cereblon/Glycogen synthase kinase-3 beta (Homo sapiens, UniProt P49841+Q96SW2)	%	78
O=C1CCC(N2C(=O)c3cccc(NCCOCCOCCOCCOCCOCn4cc(CN5CCN(CCCn6cc(C7=C(c8c[nH]c9ccccc89)C(=O)NC7=O)c7ccccc76)CC5)nn4)c3C2=O)C(=O)N1 (stereo not drawn)	Protein cereblon/Glycogen synthase kinase-3 beta (Homo sapiens, UniProt P49841+Q96SW2)	%	75
O=C1CCC(N2C(=O)c3cccc(NCCCCCn4cc(CN5CCN(CCCn6cc(C7=C(c8c[nH]c9ccccc89)C(=O)NC7=O)c7ccccc76)CC5)nn4)c3C2=O)C(=O)N1 (stereo not drawn)	Protein cereblon/Glycogen synthase kinase-3 beta (Homo sapiens, UniProt P49841+Q96SW2)	%	90
O=C1CCC(N2C(=O)c3ccc(N4CCN(CCOCCC(=O)N5CCN(CCCn6cc(C7=C(c8c[nH]c9ccccc89)C(=O)NC7=O)c7ccccc76)CC5)CC4)cc3C2=O)C(=O)N1 (stereo not drawn)	Protein cereblon/Glycogen synthase kinase-3 beta (Homo sapiens, UniProt P49841+Q96SW2)	%	88
O=C1CCC(N2C(=O)c3cccc(NCCOCCOCCOCC(=O)N4CCN(CCCn5cc(C6=C(c7c[nH]c8ccccc78)C(=O)NC6=O)c6ccccc65)CC4)c3C2=O)C(=O)N1 (stereo not drawn)	Protein cereblon/Glycogen synthase kinase-3 beta (Homo sapiens, UniProt P49841+Q96SW2)	%	87

----------
Test: Metabolic stability in pooled human liver microsomes assessed as half-life at 100 uM measured upto 120 mins by LC-MS/MS analysis
Format: ADME, Microsome
attribute.measured: half-life at 100 µM (min)

compound	number
O=C1CCC(N2C(=O)c3cccc(NCCCCCn4cc(CN5CCN(CCCn6cc(C7=C(c8c[nH]c9ccccc89)C(=O)NC7=O)c7ccccc76)CC5)nn4)c3C2=O)C(=O)N1 (configuration not stated)	56
CC(=O)c1c(C)c2cnc(Nc3ccc(N4CCNCC4)cn3)nc2n(C2CCCC2)c1=O	57
